Tested on: Dialister pneumosintes
Assay: Antimicrobial activity against Dialister pneumosintes by agar dilution method
Format: functional
property.measured: MIC

Example cases with answers are listed next.
O=C(N[C@H](CO)[C@H](O)c1ccc([N+](=O)[O-])cc1)C(Cl)Cl	0.25 µg/mL
C[C@@H](O)[C@H]1C(=O)N2C(C(=O)O)=C(SCCNC=N)C[C@H]12 [IMIPENEM ANHYDROUS]	≤ 0.06 µg/mL
CC[C@H]1OC(=O)[C@H](C)C(=O)[C@H](C)[C@@H](O[C@@H]2O[C@H](C)C[C@H](N(C)C)[C@H]2O)[C@](C)(OC)C[C@@H](C)C(=O)[C@H](C)[C@H]2N(CCCCn3cnc(-c4cccnc4)c3)C(=O)O[C@]12C	≤ 0.06 µg/mL
CC(=O)OCC1=C(C(=O)O)N2C(=O)[C@@H](NC(=O)Cc3cccs3)[C@H]2SC1	0.25 µg/mL
COc1c(N2C[C@@H]3CCCN[C@@H]3C2)c(F)cc2c(=O)c(C(=O)O)cn(C3CC3)c12	≤ 0.06 µg/mL

Could you now look at the following compound, please?
The recorded MIC with Dialister pneumosintes for C[C@H]1c2cccc(O)c2C(=O)C2=C(O)[C@]3(O)C(=O)C(C(N)=O)=C(O)[C@@H](N(C)C)[C@@H]3[C@@H](O)[C@@H]21.O was ≤ 0.06 µg/mL

From: ChEMBL document CHEMBL1151441
